# System: DLD1
# ASSAY EXPLANATION: TCF/Wnt firefly luciferase reporter signal relative to plate median (fraction of plate median); higher = higher Wnt reporter signal
# RECORDED CONDITIONS: 5 µM; treatment time 24 h; reporter: 7TFP
MEASURED PROPERTY: TCF/Wnt firefly luciferase reporter signal
Keep it simple and answer with nothing but the number.

Use the examples below as a reference point.
Task: Suppose we examine the compound COc1ccc(-c2c(O)c3c(OC)c4c(cc3oc2=O)OC(C)(C)C=C4)cc1 ; what TCF/Wnt firefly luciferase reporter signal value has been reported?
Result: 1.07

Task: Next: CC(=O)Oc1cc2c(c(C)c1OC(C)=O)CC=C1[C@@]2(C)CC[C@@]2(C)C3C[C@](C)(C(=O)O)CC[C@]3(C)CC[C@]12C (stereo partly specified)
Result: 0.869

Task: Next: CC1(C)S[C@@H]2[C@H](NC(=O)COc3ccccc3)C(=O)N2[C@H]1C(=O)O
Result: 1.1

Task: Next: CC(C)NCC(O)c1ccc(O)c(O)c1 (stereo unspecified)
Result: 1.02

Task: Next: O=C1CN(/N=C/c2ccc([N+](=O)[O-])o2)C(=O)N1
Result: 0.954

Task: Next: C[C@]12CC[C@@H]3c4ccc(O)cc4CC[C@H]3[C@@H]1C[C@@H](O)[C@@H]2O
Result: 1.07

More entries:
Task: Suppose we examine the compound CC(=O)NCCc1ccc(O)cc1 [N-Acetyl-tyramine] ; what TCF/Wnt firefly luciferase reporter signal value has been reported?
Result: 1.13

Task: Next: NS(=O)(=O)c1cc2c(cc1Cl)N=CNS2(=O)=O
Result: 0.828

Task: Next: O=C(O)C1CCCNC1 (stereo unspecified)
Result: 1.03

Task: Next: CCOC(=O)C1=C[C@]2(CC)CCCN3CCc4c(n1c1ccccc41)[C@@H]32
Result: 1.02

Task: Next: COc1cc2oc3cc(OC)c(OC)c(CC=C(C)C)c3c(=O)c2c(OC)c1CC=C(C)C
Result: 1.23

---

# Test system: HCT116
# ASSAY EXPLANATION: cell viability (CellTiter-Glo) relative to plate median (fraction of plate median); higher = more viable cells
# RECORDED CONDITIONS: 10 µM; treatment time 24 h; reporter: TCF4/Wnt
MEASURED PROPERTY: cell viability
Keep it simple and answer with nothing but the number.

Use the examples below as a reference point.
Task: Lab note: need cell viability for CC(C)(C)c1cnc(CSc2cnc(NC(=O)C3CCNCC3)s2)o1 on HCT116, anyone have it?
Result: 0.786

Task: Next: O=C1Nc2ccccc2/C1=C1/Nc2ccccc2C1=O
Result: 1.09

Task: Next: C=CC(=O)N1CCC[C@@H](n2nc(-c3ccc(Oc4ccccc4)cc3)c3c(N)ncnc32)C1
Result: 1.36

More entries:
Task: Lab note: need cell viability for CNC(=O)c1cccc(-c2ccc3c(N4CCOC[C@@H]4C)nc(N4CCOC[C@@H]4C)nc3n2)c1 on HCT116, anyone have it?
Result: 0.794

Task: Next: Nc1ccc(C(=O)Nc2cccc(-c3nc(N4CCOCC4)c4oc5ncccc5c4n3)c2)cn1
Result: 0.819

---

# System: SW480
# ASSAY EXPLANATION: cell viability (CellTiter-Glo) relative to plate median (fraction of plate median); higher = more viable cells
# RECORDED CONDITIONS: 5 µM; treatment time 24 h; reporter: 7TFP
Form field: cell viability (one value per entry).

Task: Suppose we examine the molecule COc1cc2oc3cc(OC)c(OC)c(CC=C(C)C)c3c(=O)c2c(O)c1CC=C(C)C ; what cell viability value has been reported?
Result: 1.02

Task: Next: C=C1C(=O)[C@]23[C@H](CC[C@@H]1[C@@H]2O)[C@]12CO[C@@]3(O)[C@H](O)[C@H]1C(C)(C)CC[C@@H]2O
Result: 1.04

Task: Next: CN(Cc1cc(Br)cc(Br)c1N)C1CCCCC1
Result: 0.905

Task: Next: COc1c2c(c(O)c3c4c(c(C)cc13)C1OC3(C(OC)OC)OC1C(O[C@H]1C[C@@H](O)[C@@](O)(C(C)=O)[C@H](C)O1)(O4)C3(O)CO)C(=O)C(O)CC2O[C@H]1C[C@@](C)(O)[C@H](OC(C)=O)[C@H](C)O1 (some centres not stated)
Result: 1.06

Task: Next: NCCS
Result: 1.03

Task: Next: CCC(=O)C1(C)OC1C(C)CC(C)C1OC(=O)CC2(O)CC=C(C)C(O2)/C(C)=C/CCCC(OC2CC(OC(N)=O)C(O)C(C)O2)/C=C/C(C)C(O)C1C (configuration not stated)
Result: 1

Task: Next: CC1(C)O[C@H]2[C@H](O)C[C@](O)(C(N)=O)C[C@H]2O1
Result: 1.09

---

# System: DLD1
# ASSAY EXPLANATION: TCF/Wnt firefly luciferase reporter signal relative to plate median (fraction of plate median); higher = higher Wnt reporter signal
# RECORDED CONDITIONS: 10 µM; treatment time 24 h; reporter: TCF4/Wnt
Form field: TCF/Wnt firefly luciferase reporter signal (one value per entry).
Keep it simple and answer with nothing but the number.

Use the examples below as a reference point.
Task: Suppose we examine the molecule CNC(=O)c1ccccc1Nc1nc(Nc2ccc(N3CCOCC3)cc2OC)ncc1Cl ; what TCF/Wnt firefly luciferase reporter signal value has been reported?
Result: 0.823

Task: Next: COc1cc(Nc2ncc(F)c(Nc3ccc4c(n3)NC(=O)C(C)(C)O4)n2)cc(OC)c1OC [R406(free base)]
Result: 1.16

Task: Next: COc1ccc2c(Oc3ccc(NC(=O)c4c(C)n(CC(C)(C)O)n(-c5ccccc5)c4=O)nc3)ccnc2c1
Result: 0.99

Task: Next: C#Cc1cccc(Nc2ncnc3cc(OCCOC)c(OCCO)cc23)c1
Result: 0.819

Task: Next: Nc1nc(Nc2ccc(S(N)(=O)=O)cc2)nn1C(=O)c1c(F)cccc1F
Result: 1.59

Task: Next: CCCS(=O)(=O)Nc1ccc(F)c(C(=O)c2c[nH]c3ncc(Cl)cc23)c1F
Result: 0.746

More entries:
Task: Suppose we examine the molecule COc1ccc(COc2cc3oc(=O)c4cc(C(C)O)ccc4c3cc2OC)cc1 (centres undefined) [Palomid 529] ; what TCF/Wnt firefly luciferase reporter signal value has been reported?
Result: 1.16

Task: Next: CCN1CCN(Cc2ccc(-c3cc4c(N[C@H](C)c5ccccc5)ncnc4[nH]3)cc2)CC1
Result: 0.852

Task: Next: Cc1cn(-c2cc(NC(=O)c3ccc(C)c(Nc4nccc(-c5cccnc5)n4)c3)cc(C(F)(F)F)c2)cn1 [Nilotinib (AMN-107)]
Result: 0.708

---

# Tested on: HCT116
# ASSAY EXPLANATION: cell viability (CellTiter-Glo) relative to plate median (fraction of plate median); higher = more viable cells
# RECORDED CONDITIONS: 5 µM; treatment time 24 h; reporter: TCF4/Wnt
MEASURED PROPERTY: cell viability

Task: Suppose we examine the compound C=C(C)[C@@H]1C[C@H]2O[C@](O)(C/C(C)=C\C(=O)/C=C(/C)C[C@@H]3OC(=O)[C@]24O[C@@H]34)[C@H]1O [bipinnatolide F] ; what cell viability value has been reported?
Result: 0.943

Task: Next: CC(=O)O[C@@H]1CC2C(C)(CC[C@H](O)C2(C)C)C2CC[C@]3(C)C(=CC(=O)O[C@H]3c3ccoc3)C21C (stereo partly drawn) [3beta-HYDROXYDEOXODIHYDRODEOXYGEDUNIN]
Result: 0.963

Task: Next: CC1(C)CCC[C@]2(C)[C@@H]3[C@H]1[C@@H](O)[C@@]2(C)C[C@H]3O
Result: 0.991

Task: Next: Clc1ccc2c(c1)C(N1CCNCC1)=Nc1ccccc1O2
Result: 1.08

Task: Next: CCCCCC(=O)O[C@]1(C(C)=O)CC[C@H]2[C@@H]3CCC4=CC(=O)CC[C@]4(C)[C@H]3CC[C@@]21C
Result: 1.04

More entries:
Task: Suppose we examine the compound NC(=O)N1c2ccccc2CC(=O)c2ccccc21 ; what cell viability value has been reported?
Result: 0.847

Task: Next: CC1(C)O[C@@H]2C[C@H]3[C@@H]4C[C@H](F)C5=CC(=O)C=C[C@]5(C)[C@@]4(F)[C@@H](O)C[C@]3(C)[C@]2(C(=O)CO)O1
Result: 1

Task: Next: COc1ccc2[nH]cc(CCNC(C)=O)c2c1
Result: 1.11

Task: Next: COc1ccc(C(=O)c2ccc(O)cc2)c(O)c1O
Result: 0.971

Task: Next: CCOC(=O)c1c(C)cc(OC)cc1O
Result: 0.908

Task: Next: O=C(Oc1cccc2cccnc12)c1ccccc1
Result: 0.891

Task: Next: CC(C)NNC(=O)c1ccncc1
Result: 0.992

Task: Next: COc1ccc2c(C)cc(=O)oc2c1
Result: 0.962
